Target: SfurOBP11 (Sogatella furcifera, UniProt V5T6E3)
Sequence (V5T6E3 entry or part of it): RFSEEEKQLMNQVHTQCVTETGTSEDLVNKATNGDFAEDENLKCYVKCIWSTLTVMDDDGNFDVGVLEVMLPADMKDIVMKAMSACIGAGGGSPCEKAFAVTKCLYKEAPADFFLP
Test: biochemical
Type: binding
Conditions: ligand concentration 4, replicate 1
met means recorded Fluorescence intensity, fluorescence competitive binding assay, OBP11 is 30000 or above; not met means it is below 30000.

C=CC(C)(O)CCC=C(C)C (centres unmarked)
met

Query :: Textbook exercise: given the entry CCCCCCCC=O , state whether its Fluorescence intensity, fluorescence competitive binding assay, OBP11 is greater than or equal to 30000.
Result :: not met

* * *

Entries and their Fluorescence competitive binding assay, OBP2 (raw fluorescence reading)
Target: UniProt:V5T759
Assay: biochemical
Assay type: binding
Conditions: ligand concentration 20 (unit not given), replicate column 3 of 3
Respond numerically, and do not add a unit to the figure.

Study these solved cases before continuing.
CCCCCCCCCCCCCCCCCC
21384
OC1CCCCC1
13122
CC(C)COC(=O)CCCCC(=O)OCC(C)C [DA(diisobutyl adipate)]
13272
c1ccc2ccccc2c1
15413
CCCCCCCCCCCCCCCC(=O)OC [MH(methyl hexadecanoate)]
85793

Query :: Field request: Fluorescence competitive binding assay, OBP2 (raw fluorescence reading) | item: Cc1cc(C(C)(C)C)c(O)c(C(C)(C)C)c1
Result :: 10378

Query :: Then this compound: CCCCCCC=CCO
Result :: 13725

Query :: // same read-out, input: CC(=O)/C=C/C1=C(C)CCCC1(C)C
Result :: 11423

Query :: Next compound up: C=C/C(C)=C/C/C=C(\C)CCC=C(C)C
Result :: 19308

Query :: Same question, CCCCCCCCCCCCCC this time
Result :: 19728

* * *

Biological target: SfurOBP11 (Sogatella furcifera)
Experiment: biochemical
Assay type: binding
Reported values of IC50 for individual entries

COC(=O)c1ccccc1
> 20 µM
O=C(c1ccccc1)c1ccccc1
16.3 µM
CC/C=C\CCO [(Z)-3-hexenol]
19.7 µM
C[C@@H]1CC[C@H]2C(C)(C)[C@H]3C[C@@]12CC[C@@]3(C)O
> 20 µM
CCC/C=C/CO [(E)-2-hexenol]
> 20 µM
O=Cc1ccccc1
> 20 µM

Query :: // returns reported IC50 for input C=CC(C)(O)CCC=C(C)C (stereo not shown)
Result :: > 20 µM

* * *

Molecular target: SfurOBP2 (Sogatella furcifera)
Experiment: biochemical
Type: binding
Settings: ligand concentration 20 (unit not given), replicate column 2 of 3
Listing of entries alongside the reported Fluorescence competitive binding assay, OBP2 (raw fluorescence reading).
# respond with the number and nothing more

Example cases with answers are listed next.
CC(=O)/C=C/C1=C(C)CCCC1(C)C
10983
CCCCCCC=CCO
15694
CCCCCCCCCCC
14231
C=CC(C)(O)CCC=C(C)C (stereo not shown)
13969
CC(=O)c1ccccc1
14026
Cc1ccc(C(C)C)cc1
12354

Query :: Consider the molecule CCCCCCCCCCCCCCCCCC and give its measured Fluorescence competitive binding assay, OBP2 (raw fluorescence reading).
Result :: 21130

Query :: Similarly, CCCCCC(C)=O ?
Result :: 14167

Query :: Would you kindly repeat that for CCCCCCCC=O ?
Result :: 17294

* * *

Examples of molecules with documented Fluorescence competitive binding assay, OBP2 (raw fluorescence reading) follow.
Molecular target: SfurOBP2 (Sogatella furcifera, UniProt V5T759)
Sequence (V5T759 entry or part of it): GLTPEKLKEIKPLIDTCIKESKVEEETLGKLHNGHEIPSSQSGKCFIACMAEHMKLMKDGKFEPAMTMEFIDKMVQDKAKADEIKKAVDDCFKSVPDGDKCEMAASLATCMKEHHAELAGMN
Experiment: biochemical
Type: binding
Details: ligand concentration 2 (unit not given), replicate column 2 of 3
I'd appreciate a reply containing only the number, no unit.

CCCCCCCCCCCCC=O
16260

Query :: Query: Fluorescence competitive binding assay, OBP2 (raw fluorescence reading); subject: CCCCCC=O
Result :: 17721

Query :: Another molecule to check: CCC/C=C/CO [(E)-2-hexenol]
Result :: 18447
